From: paper PMC11191095

system: S. aureus (MSSA) ATCC 9144; assay: microbe, parasite or virus in culture; assay type: cell-based, Staphylococcus aureus; conditions: S. aureus (MSSA) ATCC 9144 (S); shown in µM
Where a SMILES comes first, the peptide text is derived from it.
READOUT_KIND: Modal MIC

For the compound CC[C@H](C)[C@H](NC(=O)[C@@H](N)Cc1c[nH]c2ccccc12)C(=O)N[C@@H](CCCCN)C(=O)N[C@@H](CO)C(=O)N[C@H](C(=O)N[C@@H](C)C(=O)N[C@@H](CCCCN)C(=O)N[C@@H](CCCCN)C(N)=O)[C@@H](C)O [Opis8a] (H-WIKSTAKK-NH2) , what Modal MIC is on record?
> 133.2 µM

For the compound CC(C)C[C@H](NC(=O)[C@H](CCCCN)NC(=O)[C@H](CO)NC(=O)[C@H](CCCCN)NC(=O)[C@@H](N)Cc1c[nH]c2ccccc12)C(=O)N[C@@H](C)C(=O)N[C@@H](CCCCN)C(=O)N[C@@H](CCCCN)C(N)=O [PS-PB-8a] (H-WKSKLAKK-NH2) , what Modal MIC is on record?
> 127.2 µM

For the compound CC[C@H](C)[C@H](NC(=O)[C@H](CCCCN)NC(=O)[C@H](CC(C)C)NC(=O)[C@H](C)NC(=O)[C@H](C)NC(=O)[C@H](CCCCN)NC(=O)[C@H](CC(C)C)NC(=O)[C@H](C)NC(=O)[C@@H](N)CCCCN)C(=O)NCC(N)=O [CPF-P3-10a] (H-KALKAALKIG-NH2) , what Modal MIC is on record?
> 122 µM

----------
tested on: C. tropicalis NCPF 8760; experiment: microbe, parasite or virus in culture; format: cell-based; settings: C. tropicalis NCPF 8760; shown in µM
Where a SMILES comes first, the peptide text is derived from it.
READOUT_KIND: Modal MIC50

Find Modal MIC50 (C. tropicalis NCPF 8760) for the entry CC(C)C[C@H](NC(=O)[C@H](CCCCN)NC(=O)[C@H](CO)NC(=O)[C@H](CCCCN)NC(=O)[C@@H](N)Cc1c[nH]c2ccccc12)C(=O)N[C@@H](C)C(=O)N[C@@H](CCCCN)C(=O)N[C@@H](CCCCN)C(N)=O [PS-PB-8a] (H-WKSKLAKK-NH2)
> 127.2 µM

Find Modal MIC50 (C. tropicalis NCPF 8760) for the entry CC[C@H](C)[C@H](NC(=O)[C@@H](N)Cc1c[nH]c2ccccc12)C(=O)N[C@@H](CCCCN)C(=O)N[C@@H](CO)C(=O)N[C@H](C(=O)N[C@@H](C)C(=O)N[C@@H](CCCCN)C(=O)N[C@@H](CCCCN)C(N)=O)[C@@H](C)O [Opis8a] (H-WIKSTAKK-NH2)
> 133.2 µM

Find Modal MIC50 (C. tropicalis NCPF 8760) for the entry CC[C@H](C)[C@H](N)C(=O)N[C@@H](CCCNC(=N)N)C(=O)NCC(=O)N[C@@H](Cc1ccc(O)cc1)C(=O)N[C@@H](CCCCN)C(=O)NCC(=O)NCC(=O)N[C@@H](Cc1ccc(O)cc1)C(=O)N[C@@H](CS)C(=O)N[C@@H](CCCCN)C(N)=O [Os(3-12)a] (H-IRGYKGGYCK-NH2)
> 112 µM

Find Modal MIC50 (C. tropicalis NCPF 8760) for the entry CC[C@H](C)[C@H](NC(=O)[C@H](CCCCN)NC(=O)[C@H](CC(C)C)NC(=O)[C@H](C)NC(=O)[C@H](C)NC(=O)[C@H](CCCCN)NC(=O)[C@H](CC(C)C)NC(=O)[C@H](C)NC(=O)[C@@H](N)CCCCN)C(=O)NCC(N)=O [CPF-P3-10a] (H-KALKAALKIG-NH2)
> 122 µM

Find Modal MIC50 (C. tropicalis NCPF 8760) for the entry C[C@H](NC(=O)CNC(=O)[C@H](CCCCN)NC(=O)[C@@H](N)CS)C(=O)N[C@@H](Cc1ccccc1)C(=O)N[C@@H](CCCCN)C(=O)N[C@@H](CCC(N)=O)C(=O)N[C@H](C(=O)N[C@@H](CS)C(=O)N[C@@H](CCCCN)C(=O)N[C@@H](CS)C(=O)N[C@@H](Cc1ccc(O)cc1)C(N)=O)[C@@H](C)O [Os(11-22)a] (H-CKGAFKQTCKCY-NH2; N-terminus assumed)
> 91.7 µM

Find Modal MIC50 (C. tropicalis NCPF 8760) for the entry CC(C)C[C@H](NC(=O)[C@H](CCCCN)NC(=O)[C@H](CCCCN)NC(=O)[C@H](C)NC(=O)[C@H](CC(C)C)NC(=O)[C@H](CCCCN)NC(=O)[C@H](CO)NC(=O)[C@H](CCCCN)NC(=O)[C@H](Cc1c[nH]c2ccccc12)NC(=O)[C@H](C)NC(=O)[C@H](CCCCN)NC(=O)[C@H](CCCCN)NC(=O)[C@H](CC(C)C)NC(=O)[C@H](Cc1ccccc1)NC(=O)[C@H](CO)NC(=O)CN)C(N)=O [PS-PB-16a] (H-GSFLKKAWKSKLAKKL-NH2)
> 67.8 µM

----------
tested on: S. aureus (MRSA) NCTC 13616; test: microbe, parasite or virus in culture; assay type: cell-based, Staphylococcus aureus; conditions: S. aureus (MRSA) NCTC 13616 (R); shown in µM
Where a SMILES comes first, the peptide text is derived from it.
READOUT_KIND: Modal MIC

For the compound C[C@H](NC(=O)CNC(=O)[C@H](CCCCN)NC(=O)[C@@H](N)CS)C(=O)N[C@@H](Cc1ccccc1)C(=O)N[C@@H](CCCCN)C(=O)N[C@@H](CCC(N)=O)C(=O)N[C@H](C(=O)N[C@@H](CS)C(=O)N[C@@H](CCCCN)C(=O)N[C@@H](CS)C(=O)N[C@@H](Cc1ccc(O)cc1)C(N)=O)[C@@H](C)O [Os(11-22)a] (H-CKGAFKQTCKCY-NH2; N-terminus assumed) , what Modal MIC is on record?
> 91.7 µM

For the compound CC(C)C[C@H](NC(=O)[C@H](CCCCN)NC(=O)[C@H](CO)NC(=O)[C@H](CCCCN)NC(=O)[C@H](Cc1c[nH]c2ccccc12)NC(=O)[C@H](C)NC(=O)[C@H](CCCCN)NC(=O)[C@H](CCCCN)NC(=O)[C@H](CC(C)C)NC(=O)[C@H](Cc1ccccc1)NC(=O)[C@H](CO)NC(=O)CN)C(=O)N[C@@H](C)C(=O)N[C@@H](CCCCN)C(=O)N[C@@H](CCCCN)C(=O)N[C@@H](CC(C)C)C(=O)N[C@@H](CCCNC(=N)N)C(=O)N[C@@H](C)C(=O)N[C@@H](CCCCN)C(=O)NCC(N)=O [PS-PB-20a] (H-GSFLKKAWKSKLAKKLRAKG-NH2) , what Modal MIC is on record?
> 55.7 µM

For the compound CC[C@H](C)[C@H](NC(=O)[C@H](CCCCN)NC(=O)[C@H](CC(C)C)NC(=O)[C@H](C)NC(=O)[C@H](C)NC(=O)[C@H](CCCCN)NC(=O)[C@H](CC(C)C)NC(=O)[C@H](C)NC(=O)[C@@H](N)CCCCN)C(=O)NCC(=O)N[C@@H](C)C(=O)N[C@@H](CC(N)=O)C(N)=O [CPF-P3-12a] (H-KALKAALKIGAN-NH2) , what Modal MIC is on record?
> 103.8 µM

For the compound CC[C@H](C)[C@H](NC(=O)[C@@H](N)CCCCN)C(=O)N[C@@H](C)C(=O)N[C@@H](CCCCN)C(=O)N[C@H](C(=O)N[C@@H](C)C(=O)N[C@@H](CC(C)C)C(=O)N[C@@H](CCCCN)C(=O)N[C@@H](C)C(=O)N[C@@H](CC(C)C)C(N)=O)C(C)C [DRAMP02273a] (H-KIAKVALKAL-NH2) , what Modal MIC is on record?
> 117.5 µM

For the compound CC(C)C[C@H](NC(=O)[C@H](CCCCN)NC(=O)[C@H](CCCCN)NC(=O)[C@H](C)NC(=O)[C@H](CC(C)C)NC(=O)[C@H](CCCCN)NC(=O)[C@H](CO)NC(=O)[C@H](CCCCN)NC(=O)[C@H](Cc1c[nH]c2ccccc12)NC(=O)[C@H](C)NC(=O)[C@H](CCCCN)NC(=O)[C@H](CCCCN)NC(=O)[C@H](CC(C)C)NC(=O)[C@H](Cc1ccccc1)NC(=O)[C@H](CO)NC(=O)CN)C(N)=O [PS-PB-16a] (H-GSFLKKAWKSKLAKKL-NH2) , what Modal MIC is on record?
> 67.8 µM
